All figures here come from ChEMBL document CHEMBL1201862.

- Test system: SF-268
- experiment_summary: NCI tumour cell line growth inhibition, 48 h
Calls of active or inactive are those of the source. Rule as the data show it: active = GI50 up to about 1.1 µM and inactive = higher.
Quick list: GI50 per entry.

compound	GI50
O=C1CC(CC(=O)C2CCCCC2=O)C(=O)N1 (stereo unspecified)	> 100 µM (inactive)
Cc1cccc2c(N)c3cccc(C(=O)NCC[N+](C)(C)Cc4ccc(S(C)(=O)=O)cc4)c3nc12	25.1 µM (inactive)
CC(=O)/C(=C\c1cccc([N+](=O)[O-])c1)C(=O)Nc1ccccc1C	> 100 µM (inactive)
O=C(/C=C(\N=P(c1ccccc1)(c1ccccc1)c1ccccc1)C(F)(F)C(F)(F)C(F)(F)C(F)(F)C(F)(F)C(F)(F)C(F)(F)F)c1ccccc1	> 100 µM (inactive)
N#CC1=C(O)NC(O)=C(C#N)C1c1ccc(C2C(C#N)=C(O)NC(O)=C2C#N)cc1	> 100 µM (inactive)

Lab note: next compound to report on.
Prompt: Given the compound c1cc(N(CCn2cccn2)CCn2cccn2)cc(N(CCn2cccn2)CCn2cccn2)c1 , what is its reported GI50?
Completion: > 100 µM (inactive)
